- TARGET_OF_ASSAY: TRPC5 (Homo sapiens)
- Construct: expressed in transfected cells; host or cells: HEK 293
- ASSAY: TRPC5 Fluorescence Assay - FLIPR format (HEK-TREx hTRPC5, Riluzole stimulation)
- Format: cell-based
- CONDITION_DESCRIPTION: Table 10, read-out: TRPCS-FLIPR IC50
pIC50: −log10 of the molar value.
MEASUREMENT_KIND: pIC50

>>> reported("C[C@@H](c1ccc(F)cc1CN1CCOCC1)n1nnc2c1CCN(c1cn[nH]c(=O)c1Cl)C2")
"5.30 to 6.00"
>>> reported("Nc1nn(Cc2ccc(F)cc2C(F)(F)F)c2c1CN(c1cn[nH]c(=O)c1Cl)CC2")
"6.00 to 11.00"
>>> reported("C[C@@H](c1ccc(F)cc1C(F)F)n1nc(C(N)=O)c2c1CCN(c1cn[nH]c(=O)c1Cl)C2")
"6.00 to 11.00"
>>> reported("N[C@@H](c1cc(F)ccc1Cn1nnc2c1CCN(c1cn[nH]c(=O)c1Cl)C2)C(F)(F)F")
"5.30 to 6.00"
>>> reported("CCS(=O)(=O)c1nn(Cc2ccc(F)cc2C(F)F)c2c1CN(c1cn[nH]c(=O)c1Cl)CC2")
"5.30 to 6.00"
>>> reported("O=c1[nH]ncc(C2CCc3c(nnn3Cc3ccccc3C(F)(F)F)C2)c1Cl (centres unmarked)")
"3.30 to 5.00"
>>> reported("O=c1[nH]ncc(N2CCc3c(ncn3Cc3ccc(F)cc3Cl)C2)c1Cl [drawing 1136]")
"6.00 to 11.00"
>>> reported("CN(c1ncc2c(n1)CN(c1cn[nH]c(=O)c1Cl)C2)c1ccc(F)cc1Cl [drawing 1144]")
"6.00 to 11.00"
>>> reported("Cn1c(=O)c2c(n1Cc1ccccc1C(F)F)CCN(c1cn[nH]c(=O)c1Cl)C2")
"6.00 to 11.00"
>>> reported("CNC(=O)c1nn([C@@H](C)c2ccccc2C(F)F)c2c1CN(c1cn[nH]c(=O)c1Cl)CC2")
"6.00 to 11.00"
>>> reported("C[C@@H](c1ccccc1C(F)F)n1nnc2c1CCN(c1cn[nH]c(=O)c1Cl)C2 [drawing 1106]")
"6.00 to 11.00"
>>> reported("C[C@@H]1Cc2c(nnn2[C@H](C)c2ccc(F)cc2C(F)(F)F)CN1c1cn[nH]c(=O)c1Cl")
"6.00 to 11.00"
>>> reported("CC(C)C(=O)Nc1nn(Cc2ccccc2C(F)(F)F)c2c1CN(c1cn[nH]c(=O)c1Cl)CC2")
"6.00 to 11.00"
>>> reported("COC[C@@H](c1ccccc1C(F)(F)F)n1cnc2c1CCN(c1cn[nH]c(=O)c1Cl)C2")
"6.00 to 11.00"

* * *

Recorded IC50, one value per entry.
- TARGET_OF_ASSAY: TRPC5 (Homo sapiens, UniProt Q9UL62)
- Construct: expressed in transfected cells; host or cells: HEK 293
- Sequence (Q9UL62 1-973): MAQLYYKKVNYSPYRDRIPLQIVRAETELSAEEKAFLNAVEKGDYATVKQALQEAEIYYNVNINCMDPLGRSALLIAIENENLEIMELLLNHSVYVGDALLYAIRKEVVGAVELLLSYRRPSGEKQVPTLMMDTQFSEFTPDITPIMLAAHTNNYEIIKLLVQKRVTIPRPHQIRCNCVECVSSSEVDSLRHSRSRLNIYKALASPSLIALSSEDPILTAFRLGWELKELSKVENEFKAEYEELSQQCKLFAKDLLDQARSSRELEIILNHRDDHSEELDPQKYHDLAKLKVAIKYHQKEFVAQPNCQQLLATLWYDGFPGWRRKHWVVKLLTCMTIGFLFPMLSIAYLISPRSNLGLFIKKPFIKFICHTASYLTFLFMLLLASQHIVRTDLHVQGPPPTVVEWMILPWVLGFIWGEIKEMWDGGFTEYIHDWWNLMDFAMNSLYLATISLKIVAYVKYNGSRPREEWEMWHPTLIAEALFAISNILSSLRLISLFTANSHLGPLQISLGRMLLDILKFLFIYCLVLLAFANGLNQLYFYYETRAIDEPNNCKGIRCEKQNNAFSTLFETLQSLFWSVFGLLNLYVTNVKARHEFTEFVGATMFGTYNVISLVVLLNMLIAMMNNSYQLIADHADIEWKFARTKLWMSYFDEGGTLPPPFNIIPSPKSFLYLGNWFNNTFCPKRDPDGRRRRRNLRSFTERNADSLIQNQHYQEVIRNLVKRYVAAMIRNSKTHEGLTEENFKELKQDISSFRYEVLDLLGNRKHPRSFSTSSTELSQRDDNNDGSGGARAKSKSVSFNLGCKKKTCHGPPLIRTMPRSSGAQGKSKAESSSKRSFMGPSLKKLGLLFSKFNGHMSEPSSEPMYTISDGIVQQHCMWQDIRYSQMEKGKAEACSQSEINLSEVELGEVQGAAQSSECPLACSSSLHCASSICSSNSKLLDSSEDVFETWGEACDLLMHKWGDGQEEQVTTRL
- ASSAY: TRPC5 fluorescence assay, membrane potential dye, flexstation (FLEX)
- Type: cell-based
- CONDITION_DESCRIPTION: Table 6; HEK293 cells overexpressing TRPC5
- Method: HEK 293 cells expressing human TRPC5 cells were trypsinised, counted and seeded in black, clear-bottomed 96-well plates at a density of 50,000 cells per well and incubated overnight. Next day, the cells were loaded with membrane potential dye. […] The plates were then placed in the flexstation and fluorescence monitored every 1.52 seconds. After 20 seconds, 10 μL of the appropriate standard agonist was added and the fluorescence monitored for 2 minutes at ex/emm: 530 nm/565 nm.
MEASUREMENT_KIND: IC50

>>> reported("O=c1[nH]ncc(N2CCc3c(ncn3Cc3ccc(F)cc3C(F)F)C2)c1Cl [drawing 892]")
"0.01 to 1000 nM"
>>> reported("Cc1ccccc1-n1cc2c(n1)CCN(c1cn[nH]c(=O)c1Cl)C2")
"1000 to 5000 nM"
>>> reported("CCOc1cccc(Cn2cnc3c2CCN(c2cn[nH]c(=O)c2Cl)C3)n1")
"1000 to 5000 nM"
>>> reported("Cc1ncccc1Cn1cnc2c1CN(c1cn[nH]c(=O)c1Cl)CC2")
"1000 to 5000 nM"
>>> reported("CC[C@@H](c1cncc(F)c1)n1cnc2c1CCN(c1cn[nH]c(=O)c1Cl)C2")
"0.01 to 1000 nM"
>>> reported("N#Cc1c(N2CCc3ncn(Cc4ccccc4C(F)F)c3C2)cn[nH]c1=O")
"0.01 to 1000 nM"
>>> reported("O=c1[nH]ncc(N2CCc3c(nnn3Cc3cccnc3CC(F)(F)F)C2)c1Cl")
"0.01 to 1000 nM"
>>> reported("O=c1[nH]ncc(N2CCc3c(ncn3Cc3ccncc3C(F)(F)F)C2)c1Cl")
"0.01 to 1000 nM"
>>> reported("N#Cc1c(N2CCc3c(ncn3Cc3cncc(F)c3)C2)cn[nH]c1=O")
"0.01 to 1000 nM"
>>> reported("O=c1[nH]ncc(N2CCc3c(nnn3C3CCCCC3)C2)c1Cl")
"10000 to 500000 nM"
